Molecular target: CYP1A2 (Homo sapiens, UniProt P05177)
Sequence (P05177 whole entry): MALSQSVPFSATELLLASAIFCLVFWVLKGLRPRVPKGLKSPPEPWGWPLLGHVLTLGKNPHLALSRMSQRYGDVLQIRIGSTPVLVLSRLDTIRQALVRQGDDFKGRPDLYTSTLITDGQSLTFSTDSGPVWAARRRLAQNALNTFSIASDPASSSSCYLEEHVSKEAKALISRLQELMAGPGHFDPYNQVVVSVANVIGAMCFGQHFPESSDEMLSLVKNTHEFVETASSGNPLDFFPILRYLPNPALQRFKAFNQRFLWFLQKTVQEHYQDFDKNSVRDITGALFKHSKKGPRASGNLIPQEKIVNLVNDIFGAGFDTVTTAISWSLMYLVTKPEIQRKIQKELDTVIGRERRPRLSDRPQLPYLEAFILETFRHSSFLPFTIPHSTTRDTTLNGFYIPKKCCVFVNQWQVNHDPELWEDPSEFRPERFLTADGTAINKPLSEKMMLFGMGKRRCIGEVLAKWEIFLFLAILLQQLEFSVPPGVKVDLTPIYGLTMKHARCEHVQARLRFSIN
Test: Inhibition of human CYP1A2 expressed in baculovirus-infected insect microsomes at 10 uM
Type: ADME, Microsome
Assignment: determine reported inhibition at 10 µM for the given compounds.
Your answer should be a plain number; it is taken to be in %.

# O=C1CCc2cc(-c3cncc4ccccc34)cc3c2N1CCC3 with CYP1A2 (Homo sapiens, UniProt P05177): inhibition at 10 µM is 63

# O=C1CCc2cc(-c3cncc(-c4cccc(F)c4)c3)cc3c2N1CC3 with CYP1A2 (Homo sapiens, UniProt P05177): inhibition at 10 µM is 38

# COc1cncc(-c2cc3c4c(c2)CCN4C(=O)CC3)c1 with CYP1A2 (Homo sapiens, UniProt P05177): inhibition at 10 µM is 72

# COc1cncc(-c2cc3c4c(c2)CCC(=O)N4CCC3)c1 with CYP1A2 (Homo sapiens, UniProt P05177): inhibition at 10 µM is 87

# O=C1CCc2cc(-c3cccnc3)cc3c2N1CC3 with CYP1A2 (Homo sapiens, UniProt P05177): inhibition at 10 µM is 43

# O=C1CCc2cc(-c3cccnc3)cc3c2N1CCC3 with CYP1A2 (Homo sapiens, UniProt P05177): inhibition at 10 µM is 83
